These data points were gathered from paper PMC10584170.

Tested on: P. falciparum male gametocytes
Test: P. falciparum Dual Gamete Formation Assay (PfDGFA), male readout (exflagellation)
Type: cell-based, Plasmodium falciparum NF54
Conditions: 2µM, 24h preincubation with gametocytes prior to induction of gametogenesis; average of replicates
Experimental: […] The Pf DGFA was performed as described in Delves et al. 2016 [17]. […] Exflagellation was recorded by capturing 10 frames over 1 s under brightfield illumination using a x4 objective with a 1.5x zoom (effectively x6) attached to an automated Nikon Ti fluorescence microscope. […] The plates were then returned to the microscope and female gametes imaged at x6 using fluorescence microscopy. […]
Returns yes if the recorded Average inhibition male (%) is greater than or equal to 50%, and no otherwise.

These solved cases illustrate the format of a correct answer.
{"MOLECULE": "Cl.Clc1ccc(C2CCN(CCCOc3ccc4c(c3)CCNCC4)CC2)cc1", "CAT": "no"}
{"MOLECULE": "Cl.N[C@@H](CCNC1CCN(c2cccc(C(F)(F)F)c2)CC1)Cc1ccc(F)c(F)c1", "CAT": "yes"}
{"MOLECULE": "CN(C)CCN(Cc1ccc(-c2ccc(CNCCc3ccccc3)cc2)nc1)C(=O)CCC1CCCC1.O=C(O)C(F)(F)F", "CAT": "no"}
{"MOLECULE": "CC(Cc1ccc(CNC(=O)c2ccc(CC(C)NCCc3cccc(Cl)c3)cc2)cc1)NCCc1cccc(Cl)c1 (stereo not shown)", "CAT": "no"}
{"MOLECULE": "COc1ccc2ccccc2c1CCCCN1CCN(CC(c2ccc(F)cc2)N2CCC(N3CCCC3)CC2)CC1.O=C(O)C(F)(F)F (stereo not shown)", "CAT": "no"}

I'd appreciate it if you could say whether Clc1ccc(CNCCCCCCNCc2ccc(Cl)cc2)cc1.O=C(O)c1ccc2ccccc2c1O has Average inhibition male (%) at least equal to 50%.
yes

I'd appreciate it if you could say whether Oc1ccc2[nH]cc(C3CCN(CCCNCc4ccc(-c5ccccc5)cc4)CC3)c2c1 has Average inhibition male (%) at least equal to 50%.
no

---

Exercise: for every item that follows, state its recorded Mean TOX.
tested on: HepG2 cells; test: HepG2 cytotoxicity counter-screen; settings: mean of the HepG2 TOX50 values
Give bare numbers, in µM.

{"COMPOUND": "Cc1cc(Nc2ncc(C#N)c(Nc3ccccc3C(N)=O)n2)ccc1N1CCN(C)CC1.Cl [TC37]", "MEASUREMENT_UNIT": "µM", "Mean TOX": 1.80}
{"COMPOUND": "CC(C)(CN)c1nc(-c2ccc(Br)c(O)c2)c(-c2ccncc2)[nH]1.Cl [TC13]", "MEASUREMENT_UNIT": "µM", "Mean TOX": 64.38}
{"COMPOUND": "O=C(NC1CCN(Cc2ccccc2)CC1)c1cc(C(=O)NC2CCN(Cc3ccccc3)CC2)cc(C(=O)NC2CCN(Cc3ccccc3)CC2)c1 [TC20]", "MEASUREMENT_UNIT": "µM", "Mean TOX": 100.00}
{"COMPOUND": "Cl.O=C1Nc2ccc3ncccc3c2/C1=C/Nc1ccc(N2CCN(CCO)CC2)cc1 [TC71]", "MEASUREMENT_UNIT": "µM", "Mean TOX": 33.87}
{"COMPOUND": "COc1cccc(C23NC(=Nc4nc5ccccc5[nH]4)NC2(c2cccc(OC)c2)NC(=Nc2nc4ccccc4[nH]2)N3)c1 (stereo not shown) [TC54]", "MEASUREMENT_UNIT": "µM", "Mean TOX": 36.56}

Give Mean TOX for each of the items listed below.
1. O=C(C1CC1)N1c2ccccc2CCc2ccccc21 [TCMDC-123880]
2. O=C(c1ccc([N+](=O)[O-])o1)N1CCC(Cc2ccc(C(F)(F)F)cc2)CC1 [TC15]
3. Nc1cc(C=Cc2ccc([N+](=O)[O-])o2)nc2ccccc12 [TC58]
4. O=C(O)C(F)(F)F.O=c1[nH]ccc2nc(N[C@@H]3CCCNC3)nc(Nc3ccc(S(=O)(=O)N4CCOCC4)cc3)c12 [TC42]
5. COc1ccc2nc3cc(Cl)ccc3c(NCCCCNc3c4ccc(Cl)cc4nc4ccc(OC)cc34)c2c1 [TC02]
6. O=C(O)CCSSc1cccc[n+]1[O-] [TC78]

100.00
23.20
7.15
33.80
8.39
22.16

Give Mean TOX for each of the items listed below.
1. CN1CCN(c2ccc(Nc3ncc(Cl)c(Nc4cccnc4C(N)=O)n3)cc2)CC1.Cl [TC24]
2. Nc1cc(C=Cc2ccc([N+](=O)[O-])s2)nc2ccccc12 [TC80]
3. CNC(=O)c1ccccc1Nc1nc(Nc2ccc(N3CCOCC3)cc2)ncc1Cl.Cl [TC28]

1: 5.46; 2: 4.68; 3: 2.23
